Target: recombinant SHP2 protein (AviTag-G4SG4S-SHP2(1-525)) (Homo sapiens, UniProt Q06124)
Construct: recombinant SHP2 protein (AviTag-G4SG4S-SHP2(1-525)); purchased VIVA Biotech Ltd (custom production)
Sequence (Q06124 1-525): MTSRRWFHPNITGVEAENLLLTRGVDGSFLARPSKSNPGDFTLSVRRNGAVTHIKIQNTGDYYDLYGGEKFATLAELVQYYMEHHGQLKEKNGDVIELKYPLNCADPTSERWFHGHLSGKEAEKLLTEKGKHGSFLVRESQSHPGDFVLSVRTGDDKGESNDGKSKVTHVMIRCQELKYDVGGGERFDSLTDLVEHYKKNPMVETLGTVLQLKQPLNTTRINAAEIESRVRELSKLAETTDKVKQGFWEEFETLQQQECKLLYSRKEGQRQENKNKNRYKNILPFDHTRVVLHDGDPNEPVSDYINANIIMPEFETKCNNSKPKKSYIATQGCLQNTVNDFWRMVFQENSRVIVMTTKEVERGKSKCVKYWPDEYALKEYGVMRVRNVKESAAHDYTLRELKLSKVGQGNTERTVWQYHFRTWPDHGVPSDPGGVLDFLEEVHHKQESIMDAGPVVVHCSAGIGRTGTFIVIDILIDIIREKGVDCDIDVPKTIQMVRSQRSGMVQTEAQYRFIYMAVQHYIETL
Assay: Binding kinetic assay by surface plasmon resonance (SPR)
Details: 1/koff from SPR
quantity-measured: Residence time 1/koff SPR (s)
Give the quantity in s, number only.

// Residence time 1/koff SPR value for Cc1c(N2CCC3(CC2)Cn2nccc2[C@H]3N)nc(C)n(-c2cccc(Cl)c2Cl)c1=O (single isomer, unassigned) : 8065

The measured Residence time 1/koff SPR associated with "N[C@@H]1c2ccnn2CC12CCN(c1cnc(Sc3ccccc3F)cn1)CC2" reads 11001

Summary for this molecule, "N[C@@H]1c2ccnn2CC12CCN(c1cnc(Sc3cccc(-n4cccn4)c3Cl)cn1)CC2" : Residence time 1/koff SPR is 90909

Record "N[C@@H]1c2ccnn2CC12CCN(c1cnc(Oc3cccc(Cl)c3Cl)cn1)CC2" , field Residence time 1/koff SPR: 1944

Residence time 1/koff SPR measured on "N[C@@H]1c2ccnn2CC12CCN(c1cnc(Sc3ccnc4ccccc34)cn1)CC2" = 5474

Notebook: "N[C@@H]1c2ccnn2CC12CCN(c1cnc(Sc3cccc(-n4ccnc4)c3Cl)cn1)CC2" , Residence time 1/koff SPR read as 3417

In plain terms, "Cc1cccc(Sc2cnc(N3CCC4(CC3)Cn3nccc3[C@H]4N)cn2)c1F" has a documented Residence time 1/koff SPR of 53571

Value of measured Residence time 1/koff SPR for the entry "Cc1c(F)ccc(Sc2cnc(N3CCC4(CC3)Cn3nccc3[C@H]4N)cn2)c1F" : 12664
